Experiment: Inhibition of Death associated protein kinase
pIC50: −log10 of the molar value.
parameterMeasured: pIC50

N=c1ccc(-c2ccccc2)nn1CCCCCCCCCCC(=O)Nc1ccc(-c2ccccc2)nn1
4.66
N=c1cc2c(nn1CCCCCCCCCCC(=O)Nc1ccc(-c3ccccc3)nn1)-c1ccccc1CC2
4.89
